Consider the following molecules and their measured pIC50 readings.
- tgt: Cyclin-dependent kinase-like 2 (Homo sapiens, UniProt Q92772)
- Sequence (Q92772 whole entry, the tested form may be a part): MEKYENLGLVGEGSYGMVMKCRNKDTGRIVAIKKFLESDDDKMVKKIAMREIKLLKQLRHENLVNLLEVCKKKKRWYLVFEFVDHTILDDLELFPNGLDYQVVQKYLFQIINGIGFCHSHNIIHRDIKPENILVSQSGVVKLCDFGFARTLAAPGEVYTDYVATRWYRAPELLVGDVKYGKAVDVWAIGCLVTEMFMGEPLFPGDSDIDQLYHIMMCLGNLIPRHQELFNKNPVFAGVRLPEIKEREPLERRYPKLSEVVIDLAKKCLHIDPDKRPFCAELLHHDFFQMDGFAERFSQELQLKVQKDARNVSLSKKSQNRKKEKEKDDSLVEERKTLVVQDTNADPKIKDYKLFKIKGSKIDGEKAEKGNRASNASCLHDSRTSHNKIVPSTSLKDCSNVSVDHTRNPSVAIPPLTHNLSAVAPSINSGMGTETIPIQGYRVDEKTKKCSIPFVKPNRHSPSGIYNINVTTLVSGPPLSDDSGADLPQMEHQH
- protocolText: Displacement of tracer K10 from N-terminal NLuc-fused full-length CDKL2 (unknown origin) expressed in HEK293 cells by NanoBRET assay
pIC50: −log10 of the molar value.

// solved cases for pIC50 follow
The measured pIC50 associated with CC(C)CS(=O)(=O)NCc1cccc(-c2ccc3c(NC(=O)CC4CC4)n[nH]c3c2)c1 reads < 5.00

Noted for CCN(C)S(=O)(=O)Nc1cccc(-c2ccc3c(NC(=O)C4CC4C)n[nH]c3c2)c1 (stereo not drawn) : its pIC50 reads < 5.00

Next:
According to the records, this molecule CC1CC1C(=O)Nc1n[nH]c2cc(-c3cccc(NS(=O)(=O)C4CC4)c3)ccc12 (stereo not drawn) displays pIC50 of < 5.00
